Tested on: HOP-92 NSCLC
protocol notes: NCI tumour cell line growth inhibition, 48 h; in the data active means GI50 below about 0.43 µM; inactive means the rest
Pick one: Y for active, N for inactive

Below, 2 molecules whose answers are already recorded.
molecule | discrete label
CC(=O)[CH-]C(C)=O.CC(=O)[CH-]C(C)=O.CC(=O)[CH-]C(C)=O.[In+3] | N
COc1cc(NCCCCCN=C(N)N)c2ncccc2c1 | N

I'd appreciate the recorded outcome for ClCc1ccc(-c2ccc(Cn3cnc4nc(Cl)nc(Cl)c43)cc2)cc1 from this test.
N

I'd appreciate the recorded outcome for Fc1cnc(NC2CC2)nc1-c1cnc2ccc(N3CCOCC3)cn12 from this test.
Y

I'd appreciate the recorded outcome for O=c1c2ccc3cccc4c(=O)c5ccc6cccc1c6c5-c2c34 from this test.
N
